System: KM12 colon
Experiment: NCI-60 one-dose screen, 48 h (100 = growth as untreated, 0 = no growth, -100 = all killed)
Settings: 10 µM unless noted
Protocol: Growth inhibition of the KM12 human tumor cell line is measured as a screen for anti-cancer activity. Cells are grown in 96 well plates and exposed to the test compound for 48 hours. Compounds are tested at a single concentration, which is 10^-5 M for most compounds. The reported endpoint is percent growth (GI% or GIPRCNT), where numbers from 0 - 100% represent growth inhibition, and numbers from -100% - 0 represent cell death. For example, a value of 40 represents 60% growth inhibition. […]
This is part of a sample that, as a whole, favours compounds with a hit. Of some 83,000 tested, about 20% had one in any assay. Activity calls are given as the source filed them. Rule for the calls: active = growth percent below 10; inactive = the rest.

{"molecule": "CCN1C(=O)N(c2ccccc2)C2NC(=S)N(/N=C/C=C/c3ccccc3)C21 (stereo not drawn)", "growth": "21% (inactive)"}
{"molecule": "CCCCC(NC(=O)CN1C(=O)/C(=C/C(C)=C/c2ccccc2)SC1=S)C(=O)O (stereo not drawn)", "growth": "102% (inactive)"}
{"molecule": "Nc1n[nH]c2cccc(C#Cc3cccc(NC(=O)c4ccc(N5CCOCC5)c(C(F)(F)F)c4)c3)c12", "growth": "21.4% (inactive)"}
{"molecule": "CCCCCO/N=C\\c1c2c(O)c3c(O)c(C)c4c(c3c1O)C(=O)C(C)(O/C=C\\C(OC)C(C)C(OC(C)=O)C(C)C(O)C(C)C(O)C(C)/C=C\\C=C(\\C)C(=O)N2)O4 (stereo not drawn)", "growth": "17.3% (inactive)"}
{"molecule": "C[C@]12CCc3c(ccc4cc(O)ccc34)[C@@H]1C[C@H](O)[C@@H]2O", "growth": "108% (inactive)"}
{"molecule": "Cc1ccc(-c2nc3nc(-c4ccccc4)nc(N4CCN(S(=O)(=O)c5ccccc5)CC4)c3o2)cc1", "growth": "104% (inactive)"}
{"molecule": "O=C(CN1C(=O)S/C(=C\\C(Cl)=C\\c2ccccc2)C1=O)NCCCn1ccnc1", "growth": "33.9% (inactive)"}
{"molecule": "COc1cc2ncnc(Nc3ccc(F)c(Cl)c3)c2cc1OCC(=O)N1CCCCC1", "growth": "95.4% (inactive)"}

====

System: BT-549 breast
Assay: NCI-60 one-dose screen, 48 h
Details: 10 µM unless noted
About 83,000 compounds went through this panel and 20% of them were active in at least one assay; those are over-represented in the sample as a whole. Calls of active or inactive are those of the source. The calls were made as follows: active = growth percent below 10; inactive = the rest.
Classes used: t for active, f for inactive

{"compound": "N=C(N)c1ccc(-c2ccc(-c3ccc(Cl)c(Cl)c3)s2)cc1", "assigned.label": "f"}
{"compound": "N#C/C(=C\\c1ccccc1Cl)c1cc2ccccc2[nH]1", "assigned.label": "f"}
{"compound": "Cc1ccc2c(c1)C(C)Cc1c(ncnc1-n1cnc3cc(C)ccc31)N2C (configuration not stated)", "assigned.label": "t"}
{"compound": "COc1ccc2c(c1)c(C(=O)c1nc(-c3cn(C)c4ccccc34)no1)cn2C", "assigned.label": "f"}
{"compound": "COc1ccc(/C=N\\Nc2nc(SCC(C)C)nc(-c3ccc(OC)cc3)c2C#N)cc1", "assigned.label": "f"}
{"compound": "CCOc1ccccc1NC(=O)c1cc2ccccc2cc1O", "assigned.label": "f"}
{"compound": "CCCN1C(=O)/C(=c2\\sc3n(c2=O)C2C(NN=3)N(CC)C(=O)N2CC)c2ccccc21 (configuration not stated)", "assigned.label": "f"}
{"compound": "Cc1ccc(Cc2cnc(NC(=O)c3cc(C)oc3C)s2)cc1", "assigned.label": "f"}
{"compound": "COc1ccc(CCNC(=O)COc2cc3c(Nc4ccc(F)c(Cl)c4)ncnc3cc2OC)cc1OC", "assigned.label": "f"}
{"compound": "CC1(C)C(N)=Nc2cc(OCCCN3Cc4ccc(OCCc5cn(CC(=O)N6CCC(CCN7CCCC7)CC6)nn5)cc4C3)c(OCC3CC3)cc21", "assigned.label": "f"}
{"compound": "CON1CCC[C@]2(C)[C@H]3CC[C@@H]4[C@H]5[C@@H](O)C(C)(C)CC[C@]5(CO)CC[C@@]4(C)[C@]3(C)CC[C@H]2C1(C)C", "assigned.label": "f"}
{"compound": "c1cc(NCCCCN2CCOCC2)c2ccc3c(ccc4c(NCCN5CCOCC5)ccnc43)c2n1", "assigned.label": "f"}
{"compound": "COc1cc(/C=C/C(=O)c2ccc(NC(=O)CSc3nnc(-c4cc(-c5ccccc5)nc5ccccc45)n3-c3ccccc3)cc2)cc(OC)c1OC", "assigned.label": "f"}
{"compound": "Cc1ccc(S(=O)(=O)OC[C@@]2(C)CC[C@]3(C)CC[C@]4(C)C(=C3C2)C=C[C@@H]2[C@@]3(C)CCCNC(C)(C)[C@@H]3CC[C@]24C)cc1", "assigned.label": "f"}
{"compound": "Cc1ccc(-c2nc(SCC(=O)c3ccc(C#N)cc3)[nH]c(=O)c2C#N)cc1", "assigned.label": "f"}
{"compound": "O=C1C=C(Nc2ccccc2)c2ncccc2C1=O", "assigned.label": "t"}
{"compound": "COC1=CC(=O)C(OC)=C(O)C1=O", "assigned.label": "f"}
{"compound": "CC(=O)N1N=C(c2ccc(F)cc2)CC1c1sc(N(C)Cc2ccccc2)nc1Cl (configuration not stated)", "assigned.label": "f"}
{"compound": "O=C(NNc1ccccc1)C1CCCN1 (configuration not stated)", "assigned.label": "f"}
{"compound": "CCCO/N=C/c1ccccn1", "assigned.label": "f"}
{"compound": "Cc1nn(-c2nc(-c3cc4ccccc4oc3=O)cs2)c(C)c1N=Nc1ccccc1", "assigned.label": "f"}
{"compound": "CCCCCCCC/C=C\\CCCCCCCCOc1ccccc1CC(=O)NCC[N+]1(C)CCOCC1", "assigned.label": "f"}
{"compound": "O=[N+]([O-])c1cc(C(F)(F)F)ccc1Sc1ccc(C(F)(F)F)cc1[N+](=O)[O-]", "assigned.label": "f"}
{"compound": "Clc1ccc(CNc2ccc3nc(CCC4CCCCC4)[nH]c3c2)cc1", "assigned.label": "f"}
{"compound": "Cc1ccc(-c2nc3nc(-c4ccccc4)nc(N4CCCNCC4)c3o2)cc1", "assigned.label": "f"}
{"compound": "O=C(Nc1ncc(Cc2cccc(C(F)(F)F)c2)s1)c1ccc2c(c1)OCCO2", "assigned.label": "f"}
{"compound": "CSc1nnc(-c2cc3c([nH]c4ccccc43)c(-c3cccc(O)c3)n2)n1-c1ccc(C)cc1", "assigned.label": "f"}

====

Tested on: NCI-H322M lung
Assay: NCI-60 one-dose screen, 48 h (100 = growth as untreated, 0 = no growth, -100 = all killed)
Conditions: 10 µM unless noted
Experimental: Growth inhibition of the NCI-H322M human Non-Small Cell Lung tumor cell line is measured as a screen for anti-cancer activity. Cells are grown in 96 well plates and exposed to the test compound for 48 hours. Compounds are tested at a single concentration, which is 10^-5 M for most compounds. The reported endpoint is percent growth (GI% or GIPRCNT), where numbers from 0 - 100% represent growth inhibition, and numbers from -100% - 0 represent cell death. […]
Compounds without any hit were thinned out: in the full panel of roughly 83,000, 20% have a hit.
Here the recorded growth is given for each entry.

{"compound": "Nc1n[nH]c2cccc(C#Cc3cccc(C(=O)Nc4ccc(CN5CCOCC5)c(C(F)(F)F)c4)c3)c12", "growth, %": 72.2}
{"compound": "COC(=O)c1[nH]nc(OC)c1C1(C(C#N)c2nc3ccccc3s2)CCCc2ccccc21 (stereo not drawn)", "growth, %": 99.6}
{"compound": "O=C(N/N=C/c1ccc(O)cc1O)c1cccc(Nc2ccnc(C(F)(F)F)c2)c1", "growth, %": 22.7}
{"compound": "CN(C)CCCn1c2nc(=O)[nH]c(=O)c-2nc2cc(Cl)c(Cl)cc21", "growth, %": 69.1}
{"compound": "CCN1C(=O)/C(=c2\\sc3n(c2=O)C2C(NN=3)N(CC)C(=O)N2CC)c2ccccc21 (stereo not drawn)", "growth, %": 46.5}
{"compound": "C=C1C(=O)O[C@H]2[C@H]1CC/C(COC(=O)NCCCCNC(=O)OC/C1=C/CC[C@@]3(C)O[C@H]3[C@H]3OC(=O)C(=C)[C@@H]3CC1)=C\\CC[C@@]1(C)O[C@@H]21", "growth, %": 98.5}
{"compound": "Nc1ncc(-c2ccc3ncnc(N4CCc5ccc(Cl)cc54)c3c2)cc1C(F)(F)F", "growth, %": 7.25}
{"compound": "Cc1ccc(NC(=O)N/C(N)=N/c2nc(=O)c3ccccc3s2)cc1", "growth, %": 93.9}

====

System: HOP-62 NSCLC
Assay: NCI-60 one-dose screen, 48 h (100 = growth as untreated, 0 = no growth, -100 = all killed)
Conditions: 10 µM unless noted
Procedure: Growth inhibition of the HOP-62 human Non-Small Cell Lung tumor cell line is measured as a screen for anti-cancer activity. Cells are grown in 96 well plates and exposed to the test compound for 48 hours. Compounds are tested at a single concentration, which is 10^-5 M for most compounds. The reported endpoint is percent growth (GI% or GIPRCNT), where numbers from 0 - 100% represent growth inhibition, and numbers from -100% - 0 represent cell death. […]
The panel holds about 83,000 compounds, 20% with a hit somewhere; the sample as a whole holds those more often.
Labelling field: enter 1.0 if recorded growth is less than 30%. Enter 0.0 if it equals or exceeds that cut-off.

{"compound": "C/C=C(\\C)C(=O)N[C@H]1CC[C@]2(C)C3CC[C@@]4(C)C(CC[C@@H]4C(C)N(C)C)C3CCC2[C@H]1OC(C)=O (some centres not stated)", "assigned.label": 1.0}
{"compound": "CON1CCC[C@]2(C)[C@H]3CC[C@@H]4[C@H]5[C@@H](O)C(C)(C)CC[C@]5(CO)CC[C@@]4(C)[C@]3(C)CC[C@H]2C1(C)C", "assigned.label": 0.0}
{"compound": "COc1ccc(S(=O)(=O)Nc2cc(Sc3cccc4cccnc34)c(O)c3ccccc23)cc1", "assigned.label": 0.0}
{"compound": "O=S(=O)(Nc1ccc(F)cc1)c1ccc(-c2cnc(C3CC3)o2)cc1", "assigned.label": 0.0}
{"compound": "CC1=C2[C@@H](CC1)[C@]1(C)O[C@@](C3CC3)(C[C@H]1OC(=O)CO)[C@H]2OC(=O)/C=C/c1ccccc1", "assigned.label": 0.0}
{"compound": "CN1CCN(Cc2ccc(NC(=O)c3nc4ccc5[nH]ncc5c4c4c3CCCC4)cc2C(F)(F)F)CC1", "assigned.label": 1.0}
{"compound": "C=C(C)[C@@H]1CC[C@]2(C(=O)O)CC[C@]3(C)[C@H](CC[C@@H]4[C@@]5(C)CCC(N)C(C)(C)[C@@H]5CC[C@]43C)[C@@H]12 (some centres not stated)", "assigned.label": 0.0}
